The measured values listed here are drawn from paper PMC7692923.

- test_description: Intestinal stability of anthocyanins in extracts, standardized in vitro digestion (simulated intestinal fluid, pancreatin, bile, pH 7)
- Assay type: in vitro ADME
- test_settings: co-digestion of black carrot and strawberry extracts, % of undigested
measurement_kind: Intestinal stability (%)

The cases that follow already have their Intestinal stability on record.
| compound | measurement_units | Intestinal stability |
| --- | --- | --- |
| O=C(/C=C/c1ccc(O)cc1)OC[C@H]1O[C@@H](OC[C@H]2O[C@@H](Oc3cc4c(O)cc(O)cc4[o+]c3-c3ccc(O)c(O)c3)[C@H](O[C@@H]3OC[C@@H](O)[C@H](O)[C@H]3O)[C@@H](O)[C@H]2O)[C@H](O)[C@@H](O)[C@@H]1O | % | 42 |
| OC[C@H]1O[C@@H](Oc2cc3c(O)cc(O)cc3[o+]c2-c2ccc(O)c(O)c2)[C@H](O[C@@H]2OC[C@@H](O)[C@H](O)[C@H]2O)[C@@H](O)[C@H]1O [Cyanidin-3-xylosyl-galactoside] | % | 92 |
| O=C(O)CC(=O)OC[C@H]1O[C@@H](Oc2cc3c(O)cc(O)cc3[o+]c2-c2ccc(O)cc2)[C@H](O)[C@@H](O)[C@@H]1O [Pelargonidin-3-malonyl-glucoside] | % | 49 |

I = OC[C@H]1O[C@@H](Oc2cc3c(O)cc(O)cc3[o+]c2-c2ccc(O)cc2)[C@H](O)[C@@H](O)[C@@H]1O [Pelargonidin-3-glucoside]
II = OC[C@H]1O[C@@H](OC[C@H]2O[C@@H](Oc3cc4c(O)cc(O)cc4[o+]c3-c3ccc(O)c(O)c3)[C@H](O[C@@H]3OC[C@@H](O)[C@H](O)[C@H]3O)[C@@H](O)[C@H]2O)[C@H](O)[C@@H](O)[C@@H]1O [Cyanidin-3-xylosyl-glucosyl-galactoside]
III = COc1cc(/C=C/C(=O)OC[C@H]2O[C@@H](OC[C@H]3O[C@@H](Oc4cc5c(O)cc(O)cc5[o+]c4-c4ccc(O)c(O)c4)[C@H](O[C@@H]4OC[C@@H](O)[C@H](O)[C@H]4O)[C@@H](O)[C@H]3O)[C@H](O)[C@@H](O)[C@@H]2O)ccc1O
Exercise: List these items ordered by Intestinal stability, big to small. As an answer, provide the labels arranged in the order called for.
Solution: II, III, I
